Hey, just so you know, these numbers are from PubChem BioAssay (NCI).

# Tested on: SNB-78 CNS
# procedure.text: NCI tumour cell line growth inhibition, 48 h
reported.property: TGI (µM)
Report only the number, with the unit µM understood.

Below, 2 compounds whose answers are already recorded.
{"compound": "[O-][n+]1c(-c2ccccc2)oc2ccccc21", "target.of.assay": "SNB-78 CNS", "units.of.measure": "µM", "TGI": 97.1}
{"compound": "O=C1c2cccc3cc4ccccc4c(c23)C(=O)N1CCNCCN1C(=O)c2cccc3cc4ccccc4c(c23)C1=O", "target.of.assay": "SNB-78 CNS", "units.of.measure": "µM", "TGI": 1.82}

Reported TGI for COC(=O)N/N=C(/CC1(O)C(=O)Nc2ccc([N+](=O)[O-])cc21)c1ccccc1 (stereo unspecified) : what is it?
50.6

----------
# Tested on: UACC-62 melanoma
# procedure.text: NCI tumour cell line growth inhibition, 48 h
*1 amine or outer side, *2 acyl side, *3 side chain or, on linkers, in order; H or OH if unused. Where a SMILES comes first, the peptide text is derived from it. [ ]: non-standard residue; d: D form. The star is where a group is joined. ξ: configuration not given here. X53 = CC(C)C[C@H](N[*:1])C1=N[C@H](C(=O)[*:2])CS1; Ile(3ξ) = CCC(C)[C@H](N)C(=O)O; Allyl(1,1-Me2) = C=CC(C)(C)*
reported.property: TGI

Below, 8 compounds whose answers are already recorded.
{"compound": "NCCCNC(=O)c1csc(NC(=O)c2csc(NC(=O)CCCN)n2)n1", "reported.property": "TGI", "value.reported": "> 100 µM"}
{"compound": "O=S1(=O)OCCOS(=O)(=O)C1(I)I", "reported.property": "TGI", "value.reported": "30.3 µM"}
{"compound": "Cc1ccc(O)c(-c2cc(-c3cccc(Br)c3)c(C#N)c(N)n2)c1", "reported.property": "TGI", "value.reported": "37.4 µM"}
{"compound": "Cn1c(C2CCCc3c2c2ccccc2n3C)cc2ccccc21 (configuration not stated)", "reported.property": "TGI", "value.reported": "> 318 µM"}
{"compound": "COc1cccc(-c2nc(-c3cnccn3)n(C3OC(CO)C(O)C3O)n2)c1 (configuration not stated)", "reported.property": "TGI", "value.reported": "> 100 µM"}
{"compound": "NC(C/C=C/P(=O)(O)O)C(=O)O (configuration not stated)", "reported.property": "TGI", "value.reported": "> 100 µM"}
{"compound": "O=C(C(=O)c1cc(-c2ccccc2)nc2ccc3ccccc3c12)c1ccccc1", "reported.property": "TGI", "value.reported": "> 100 µM"}
{"compound": "COC(=O)CCCC(=O)C1=Nc2ccccc2CN(c2ccc(Cl)cc2)N1", "reported.property": "TGI", "value.reported": "> 100 µM"}

Reported TGI for COc1cc2c(Oc3ccc4[nH]c(C)cc4c3F)ncnc2cc1OCCCN1CCCC1 : what is it?
6.73 µM

One more compound: CC(=O)O[C@H]1CC[C@@]2(C)C(=CC[C@@H]3C2CC[C@]2(C)Nc4c(cnn4-c4ccccc4)CC32)C1 (some centres not stated)
> 100 µM

One more compound: C=CC(C)(C)OC[C@@H]1NC(=O)CNC(=O)[C@@H]2CCCN2C(=O)[C@H](C(C)CC)NC(=O)[C@@H]2CSC(=N2)[C@H](CC(C)C)NC1=O (some centres not stated) (cyclo(GS(Allyl(1,1-Me2))[X53][Ile(3ξ)]P))
> 100 µM

One more compound: [N-]=[N+]=CC(=O)OC1CCOCC1
> 100 µM

One more compound: FC(F)(F)c1ccc2c(c1)nc(-c1ccccc1)n2CC1CCCN2CCCCC12 (configuration not stated)
31.2 µM

One more compound: Cc1cccc(/C=N/NC(=S)Nc2ccc(Cl)cc2)n1
3.68 µM

One more compound: CN1N(c2ccccc2)C(=O)C2=NC=C(C(=O)c3ccccc3)C(=N)C21C (configuration not stated)
> 100 µM

One more compound: NCCCNc1nc2ccccc2c2c(=O)c3cccc(F)c3sc12
3.13 µM

One more compound: CS(=O)(=O)OCOS(C)(=O)=O
> 100 µM

One more compound: Cc1cc(=O)[nH]c(-n2[nH]c3c(c2=O)CCCC3)n1
> 100 µM

One more compound: CN(C)c1ccc(C2C(Cl)C(=O)N2NC(=O)c2c(Cl)c(Cl)c(Cl)c(Cl)c2-c2nc3ccccc3[nH]2)cc1 (configuration not stated)
37.5 µM

One more compound: Cc1ccc(N=Nc2c(C)nn(-c3ccccc3)c2C)c(Br)c1
> 100 µM

One more compound: O=C1CC(=O)c2c(N3CCCC3)sc(N3CCCC3)c21
> 100 µM

One more compound: CCOC(=O)[C@]12C3C=CC(C3)C1C(=O)C1OC12 (some centres not stated)
> 100 µM

----------
# System: NCI-H460 lung
# procedure.text: NCI tumour cell line growth inhibition, 48 h
reported.property: TGI (µM)
Report only the number, with the unit µM understood.

Below, 2 compounds whose answers are already recorded.
{"compound": "Cc1ccc(N(CC(=O)Nc2ccc(S(=O)(=O)NC3CCN(C)CC3)cc2)S(=O)(=O)c2ccc(Cl)cc2)cc1", "units.of.measure": "µM", "TGI": 4}
{"compound": "COc1cc(Nc2ncc3c(C)nc(-c4cccc(C(F)(F)F)c4)n3n2)cc(OC)c1OC", "units.of.measure": "µM", "TGI": 13.6}

Reported TGI for CC(=O)Nc1cccc2[nH]c3ccccc3c(=O)c12 : what is it?
43.2

One more compound: CCOC(=O)CCC(C(=O)OCC)n1nc2ccc(Nc3c(C)[n+]([O-])c4ccc(Cl)cc4[n+]3[O-])cc2n1 (stereo not given)
33.6

One more compound: Cc1cccc(/C=N/NC(=S)Nc2ccc(Cl)cc2)n1
15.9

----------
Listed here: items and their measured GI50.
# Test system: SF-295 CNS
# procedure.text: NCI tumour cell line growth inhibition, 48 h

Below, 5 compounds whose answers are already recorded.
{"compound": "Cc1ccc(N(CC(=O)Nc2ccc(S(=O)(=O)NC3CCN(C)CC3)cc2)S(=O)(=O)c2ccc(Cl)cc2)cc1", "GI50": "2120 nM"}
{"compound": "COc1cc(/C=C/c2cc(/C=C/c3ccc(O)c(OC)c3)n(C(=O)Cc3ccccc3)n2)ccc1O", "GI50": "2010 nM"}
{"compound": "CCCCc1ccc(NS(=O)(=O)c2cc3c4c(c2)CCN4C(=O)CC3)cc1", "GI50": "13400 nM"}
{"compound": "C=C1C(O)C2C(=C(CC(C)C)C13CC3)C(=O)C(C)(C)C2O (stereo not given)", "GI50": "> 100000 nM"}
{"compound": "COc1cc2c(Oc3ccc4[nH]c(C)cc4c3F)ncnc2cc1OCCCN1CCCC1", "GI50": "2810 nM"}

Reported GI50 for COc1cc(Nc2cc(O)c3c(=O)cc(-c4ccccc4)oc3c2)cc(OC)c1 : what is it?
389 nM

One more compound: Nc1nc(SCc2ccccc2)nc2[nH]ncc12
14800 nM

One more compound: O=[N+]([O-])c1cc([N+](=O)[O-])c(NN=C(c2ccc(O)cc2)c2ccc(O)cc2)cc1Cl
1840 nM

One more compound: COc1cc(/C=C/[N+](=O)[O-])c([N+](=O)[O-])cc1OC
6720 nM

One more compound: Cn1c([N+](=O)[O-])cnc1/C=C1\Oc2ccc(Br)cc2C1=O
1700 nM

----------
# Test system: OVCAR-3 ovarian
# procedure.text: NCI tumour cell line growth inhibition, 48 h; in the data active = GI50 below about 0.43 µM; inactive = the rest
Respond with a class label; see TRUE for active, FALSE for inactive

Recorded test outcome, item CCCCc1ccc(NS(=O)(=O)c2cc3c4c(c2)CCN4C(=O)CC3)cc1
FALSE

----------
# System: IGROV1 ovarian
# procedure.text: NCI tumour cell line growth inhibition, 48 h
reported.property: GI50

Below, 5 compounds whose answers are already recorded.
{"compound": "O=[N+]([O-])c1cc([N+](=O)[O-])c(NN=C(c2ccc(O)cc2)c2ccc(O)cc2)cc1Cl", "value.reported": "0.449 µM"}
{"compound": "COc1cc(C(=O)/C=C/c2c(-c3cccs3)nc3sccn23)cc(OC)c1OC", "value.reported": "0.462 µM"}
{"compound": "O=c1[nH]cnc2c1ncn2C1CCC(CO)O1 (stereo unspecified)", "value.reported": "> 1000 µM"}
{"compound": "Nc1nc(SCc2ccccc2)nc2[nH]ncc12", "value.reported": "19.4 µM"}
{"compound": "CCCCN1C=CCN(CCCC)C1", "value.reported": "66.4 µM"}

Continue with the compound presented below.
Kindly state the measured GI50 obtained for COc1cc(C2CC(c3ccc(SC)cc3)=NN2C(C)=O)cc(OC)c1OC (stereo unspecified) with IGROV1 ovarian.
6.38 µM
